Quick reference for normalized growth among some compounds
# test: chemical genetic growth profiling, strain panel (AID 1159580);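 also: tested at 20 µM; growth read once vehicle control cultures reached saturation at 30 °C; 1 = growth at the plate median or of vehicle wells; lower values mean less growth of the strain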
# conditionInfo: S. cerevisiae deletion strains, growth OD, locus YIR030C, strain dcg1, stronger effect = lower value
The campaign covered roughly 5,500 compounds. About 2,000 (36%) were called active. Roughly 18% stayed inconclusive and do not appear here. This is one part of the list.
No unit in the answer, only the number.

Reference set (5 entries):
CCC(=O)O[C@H]1[C@H](O[C@@H]2[C@@H](C)[C@H](O[C@H]3C[C@@](C)(OC)[C@@H](O)[C@H](C)O3)[C@@H](C)C(=O)O[C@H](CC)[C@@](C)(O)[C@H](O)[C@@H](C)C(=O)[C@H](C)C[C@@]2(C)O)O[C@H](C)C[C@@H]1N(C)C ... 1.02
CCCCNc1cc(C(=O)O)cc(S(N)(=O)=O)c1Oc1ccccc1 ... 0.981
CCOC(=O)CCC(=O)O[C@H]1[C@H](O[C@@H]2[C@@H](C)[C@H](O[C@H]3C[C@@](C)(OC)[C@@H](O)[C@H](C)O3)[C@@H](C)C(=O)O[C@H](CC)[C@@](C)(O)[C@H](O)[C@@H](C)C(=O)[C@H](C)C[C@@]2(C)O)O[C@H](C)C[C@@H]1N(C)C ... 0.997
OCC(O)C(O)C(O)CO (configuration not stated) ... 1
CC(=O)OCC(=O)[C@H]1CCC2C3CCC4=CC(=O)CC[C@]4(C)C3CC[C@@]21C (some centres not stated) ... 0.927

Incoming: I have this compound here, CNC(C)[C@H](O)c1ccccc1 (some centres not stated) , and I need its recorded normalized growth.
Outgoing: 1

---

# test: chemical genetic growth profiling, strain panel (AID 1159580);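 also: tested at 20 µM; growth read once vehicle control cultures reached saturation at 30 °C; 1 = growth at the plate median or of vehicle wells; lower values mean less growth of the strain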
# conditionInfo: S. cerevisiae deletion strains, growth OD, locus YDL185W, strain tfp1, stronger effect = lower value
The whole screen tested about 5,500 compounds, of which about 2,000 (36%) were called active. About 18% were inconclusive and are not listed. This is one part of the list.
recordedEndpoint: normalized growth
Keep the answer to the number alone.

The examples below pair each entry with its known result.
O=C(O)c1c2ccccc2cc2ccccc12 ... 0.953
CC(Oc1ccccc1)C(=O)N[C@@H]1C(=O)N2[C@@H]1SC(C)(C)[C@@H]2C(=O)O (some centres undefined) ... 1.02
COC1=C(OC)C(=O)C(C/C=C(\C)CC/C=C(\C)CC/C=C(\C)CC/C=C(/C)CC/C=C(\C)CC/C=C(\C)CC/C=C(\C)CC/C=C(\C)CC/C=C(\C)CCC=C(C)C)=C(C)C1=O ... 0.991
OCCN1C[C@@H](O)[C@@H](O)C(O)C1CO (some centres undefined) ... 0.994
CC1=C(/C=C/C(C)=C/C=C/C(C)=C/C=C/C=C(C)/C=C/C=C(C)/C=C/C23OC2(C)CC(O)CC3(C)C)C(C)(C)CC(O)C1 (centres undefined) ... 1
CCOC(=O)[C@H](CCc1ccccc1)N[C@H]1CCc2ccccc2N(CC(=O)O)C1=O ... 0.978
O=C(CC[N+](=O)[O-])OC[C@H]1O[C@@H](O)[C@H](OC(=O)CC[N+](=O)[O-])[C@@H](OC(=O)CC[N+](=O)[O-])[C@@H]1OC(=O)CC[N+](=O)[O-] ... 1.01
COc1ccc2cc([C@H](C)C(=O)O)ccc2c1 ... 0.957
CC(C)OC(=O)C(C)(C)Oc1ccc(C(=O)c2ccc(Cl)cc2)cc1 ... 0.995
C=C1C([C@]2(C)C(CC(=O)OC)[C@@](C)(COC(C)=O)OC(=O)C[C@@H]2OC(C)=O)[C@@H](OC=O)[C@H](OC(=O)C(O)C(C)CC)[C@@]2(C)[C@H](c3ccoc3)CC(=O)C12O (some centres undefined) ... 1.01

Incoming: // returns reported normalized growth for input CC1(C)C(C=C(Cl)Cl)C1C(=O)OC(C#N)c1cccc(Oc2ccccc2)c1 (centres undefined)
Outgoing: 0.996

Incoming: Give the measured normalized growth of CC(N)C(=O)OC(C)(C)Cc1ccc(Cl)cc1 (centres undefined) .
Outgoing: 0.996

Incoming: Given "O=C(O)c1cc2ccccc2c(Cc2c(O)c(C(=O)O)cc3ccccc23)c1O" , state its recorded normalized growth.
Outgoing: 1.01

Incoming: If you can, please state the reported normalized growth value of CC1=C(C(C)O)C2=NC1C=c1[nH]c(c(C)c1C(C)O)=Cc1[nH]c(c(CCC(=O)O)c1C)C=c1[nH]c(c(C)c1CCC(=O)O)=C2 (centres undefined) .
Outgoing: 1

Incoming: Form field: reported normalized growth of C=C1C([C@]2(C)C(CC(=O)OC)[C@@](C)(COC(C)=O)OC(=O)C[C@@H]2OC(C)=O)[C@@H](OC=O)[C@H](OC(=O)C(OC(C)=O)C(C)CC)[C@@]2(C)[C@H](c3ccoc3)CC(=O)C12O (some centres undefined)
Outgoing: 1.03

Incoming: Endpoint output: normalized growth of CC(C(=O)O)c1ccc(-c2ccccc2)c(F)c1 (centres undefined) . Value?
Outgoing: 0.869

Incoming: May I ask what normalized growth has been recorded for N=c1ccn2c(n1)O[C@@H]1C2O[C@H](CO)[C@H]1O (some centres undefined) ?
Outgoing: 1.01

Incoming: State the recorded normalized growth for this entry: COc1cc2c(cc1OC)C1C(=O)c3c(cc4c(c3O)C=CC(C)(C)O4)OC1CO2 (centres undefined)
Outgoing: 1.02

Incoming: Bench note: what normalized growth did COc1ccc(OC)c(C(O)C(C)N)c1 (centres undefined) show?
Outgoing: 0.988

Incoming: Given the entry CCN(CCO)CCCC(C)Nc1ccnc2cc(Cl)ccc12 (centres undefined) , report its measured normalized growth.
Outgoing: 1.01

Incoming: What measured normalized growth goes with C=C(C)C1CNC(C(=O)O)C1CC(=O)O (centres undefined) ?
Outgoing: 1.04

---

# test: chemical genetic growth profiling, strain panel (AID 1159580);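 also: tested at 20 µM; growth read once vehicle control cultures reached saturation at 30 °C; 1 = growth at the plate median or of vehicle wells; lower values mean less growth of the strain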
# conditionInfo: S. cerevisiae deletion strains, growth OD, locus YNL067W, strain RPL9B, stronger effect = lower value
About 2,000 (36%) of roughly 5,500 compounds were called active. Inconclusive results (about 18%) are left out. Some of the results follow.
recordedEndpoint: normalized growth
Keep the answer to the number alone.

Incoming: Endpoint output: normalized growth of "COP(=O)(OC)OC=C(Cl)Cl" . Value?
Outgoing: 0.963

Incoming: For O=C(O)C1(O)C[C@@H](O)C(O)[C@H](O)C1 (stereo partly specified) , what is its reported normalized growth?
Outgoing: 1.01

Incoming: Given CCC(=O)O[C@H]1CCC2C3CCC4=CC(=O)CC[C@]4(C)C3CC[C@@]21C (stereo partly specified) , state its recorded normalized growth.
Outgoing: 0.985

Incoming: I am curious: what normalized growth value has been reported for CC[C@H](/C=C/C(C)C1CCC2C3CCC4=CC(=O)CC[C@]4(C)C3CC[C@]12C)C(C)C (stereo partly specified) ?
Outgoing: 1.02

Incoming: Please give the measured normalized growth for this compound: c1cncc(C2CCCCN2)c1 (stereo unspecified)
Outgoing: 1.01

Incoming: Requested field: normalized growth. Item: CC1=C(C(C)O)C2=NC1C=c1[nH]c(c(C)c1C(C)O)=Cc1[nH]c(c(CCC(=O)O)c1C)C=c1[nH]c(c(C)c1CCC(=O)O)=C2 (stereo unspecified)
Outgoing: 0.996

Incoming: Param item = "COc1cc(O)c(C(=O)/C=C/c2ccccc2)c(OC)c1" ; retrieve measured normalized growth.
Outgoing: 0.925

Incoming: Would you kindly share the measured normalized growth for CC1CC2C3CC(F)C4=CC(=O)C=CC4(C)C3(F)C(O)CC2(C)C1(O)C(=O)CO (stereo unspecified) ?
Outgoing: 1.03

Incoming: Item C[C@H]1OC(n2cc(F)c(=O)[nH]c2=O)C(O)[C@@H]1O (stereo partly specified) has what recorded normalized growth?
Outgoing: 1.02

Incoming: Could you tell me which normalized growth is on file for C[C@]12CCC(=O)C=C1CCC1C2CC[C@@]2(C)C1CC[C@@H]2O (stereo partly specified) ?
Outgoing: 0.993

Incoming: Look up normalized growth: OCC(O)C(O)C(O)CO (stereo unspecified)
Outgoing: 0.991

Incoming: Query: normalized growth; subject: C[C@]12CC(=O)C3C(CC[C@@H]4C[C@H](O)CC[C@]34C)C1CC[C@]2(O)C(=O)CO (stereo partly specified)
Outgoing: 1.01

Incoming: Which normalized growth is listed for COc1cc(NC(C)CCCN)c2ncccc2c1 (stereo unspecified) ?
Outgoing: 1.01

Incoming: What value of normalized growth has been recorded for this entry: "COc1ccc2c3c1O[C@H]1C[C@@H](O)C=C[C@@]31CCN(C)C2"
Outgoing: 0.989

Incoming: Fill in: normalized growth of CC(=O)C1CCC2C3CC(=O)C4=CC(=O)CCC4(C)C3CCC12C (stereo unspecified) is ___
Outgoing: 0.936

---

# test: chemical genetic growth profiling, strain panel (AID 1159580);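 also: tested at 20 µM; growth read once vehicle control cultures reached saturation at 30 °C; 1 = growth at the plate median or of vehicle wells; lower values mean less growth of the strain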
# conditionInfo: S. cerevisiae deletion strains, growth OD, locus YDR392W, strain spt3, stronger effect = lower value
The campaign covered roughly 5,500 compounds. About 2,000 (36%) were called active. Roughly 18% stayed inconclusive and do not appear here. The list shows a part of the results.
Binary label based on normalized growth with cut-off 1: below gives y, not below gives n.

Worked cases, answers included:
CC(=O)OCC(=O)[C@@]1(O)CCC2C3CCC4=CC(=O)CC[C@]4(C)C3C(=O)C[C@@]21C (stereo not given in full) ... n
COc1ccc2c3c1O[C@H]1C[C@@H](O)C=C[C@@]31CCN(C)C2 ... n
Oc1cc(Cl)ccc1Oc1ccc(Cl)cc1Cl ... y

Incoming: Hi there! Is normalized growth for CCN(CCO)CCCC(C)Nc1ccnc2cc(Cl)ccc12 (stereo not given) below 1, do you know?
Outgoing: n

Incoming: Quick check: normalized growth of "CN(C)C(=S)SSC(=S)N(C)C" under 1?
Outgoing: y

Incoming: State whether 1 exceeds normalized growth recorded for CC(C[N+](C)(C)C)OC(N)=O (stereo not given) .
Outgoing: y

Incoming: Is the reported normalized growth for "O=C(O)c1cc2ccccc2[nH]1" strictly below 1?
Outgoing: y

Incoming: Hello, is normalized growth of the following compound strictly smaller than 1? C[C@]12CCC(=O)C=C1CCC1C2CC[C@@]2(C)C1CC[C@@H]2O (stereo not given in full)
Outgoing: y

Incoming: Please indicate whether the reported normalized growth of N=c1ccn2c(n1)O[C@@H]1C2O[C@H](CO)[C@H]1O (stereo not given in full) is strictly below 1.
Outgoing: y

Incoming: Quick check: does "CCOC(=O)[C@H](CCc1ccccc1)N[C@H]1CCc2ccccc2N(CC(=O)O)C1=O" have normalized growth under 1?
Outgoing: y

Incoming: Here's an entry: "CCCCCCCCCCCCCCCC(=O)OC/C=C(C)/C=C/C=C(C)/C=C/C1=C(C)CCCC1(C)C" . Is its normalized growth below 1?
Outgoing: n

Incoming: In plain terms, does "COc1ccc2c(c1)OCc1c-2oc2cc(OC)ccc12" come in under 1 for normalized growth?
Outgoing: y

Incoming: # check: normalized growth < 1 for "CC1(C)OC(=O)NC1=O"
Outgoing: y

Incoming: is_below(normalized growth, 1) for "CC1=C(/C=C/C(C)=C/C=C/C(C)=C/C=C/C=C(C)/C=C/C=C(C)/C=C/C2=C(C)C(=O)CCC2(C)C)C(C)(C)CCC1=O" ?
Outgoing: y

Incoming: Dear colleague, could you confirm whether normalized growth of "CC(=O)O[C@H]1[C@@H]2[C@@H](OC(=O)Cc3ccccc3)[C@@H](C)C[C@]2(OC(C)=O)C(=O)/C(C)=C/[C@H]2[C@H](CC[C@@]13CO3)C2(C)C" falls below 1? Thanks.
Outgoing: y

Incoming: Strictly below 1 in normalized growth? "CN1CCC(=C2c3ccccc3CCc3sccc32)CC1"
Outgoing: y

Incoming: # TODO verify normalized growth < 1 strictly for this compound: C=Cc1c2[nH]c(c1C)C=c1[nH]c(c(C)c1C=C)=CC1N=C(C=c3[nH]c(c(C)c3CCC(=O)O)=C2)C(CCC(=O)O)=C1C (stereo not given)
Outgoing: y

Incoming: Quick check: does CC(=O)OCC(=O)[C@H]1CCC2C3CCC4=CC(=O)CC[C@]4(C)C3CC[C@@]21C (stereo not given in full) have normalized growth under 1?
Outgoing: y

Incoming: Record CCN(CC)CCCC(C)Nc1ccnc2cc(Cl)ccc12 (stereo not given) : is its normalized growth strictly below 1?
Outgoing: y
